test system: NCI-H2066 (Squamous Cell Lung Carcinoma); assay: Bliss excess, mean over the matrix (fraction); higher = more synergy;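 note: after 72 h of two-drug dosing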
For each record, write down the corresponding Bliss excess.
One number for each entry.

CCN(CCO)CCCOc1ccc2c(Nc3cc(CC(=O)Nc4cccc(F)c4)[nH]n3)ncnc2c1 [AZD2811] + C=CCn1c(=O)c2cnc(Nc3ccc(N4CCN(C)CC4)cc3)nc2n1-c1cccc(C(C)(C)O)n1 [AZD1775] (first compound max 1 µM, partner max 1 µM) : -0.0589

Consider now this further compound.
# get_value(readout='Bliss excess', item= O=C(c1cc(Cc2n[nH]c(=O)c3ccccc23)ccc1F)N1CCN(C(=O)C2CC2)CC1 [Olaparib] + Cc1c2c(nn1C)CSCc1cc(n(C)n1)CSc1cc(c3ccccc3c1)OCCCc1c(C(=O)O)n(C)c3c-2c(Cl)ccc13 [AZD5991] (first compound max 10 µM, 7x7, partner max 1 µM) )
-0.0539
